- Tested on: SW480
- experimental details: Cell cycle arrest in human SW480 cells assessed as tetraploid cells generation at 30 uM after 48 hrs by flow cytometry
- Assay type: functional, cell-based
The source made the active and inactive calls. No cut-off for these calls is given here.
observation type: Activity

input: Name the recorded Activity for `COc1cc(/C=C\c2cc(OC)cc(OC)c2O)cc(OC)c1` .
output: Active

input: Need Activity of `COc1cc(/C=C\c2cc(OC)cc(OC)c2)cc(OC)c1` , thanks.
output: Active

input: Endpoint output: Activity of `COc1ccc(/C=C\c2cc(OC)cc(OC)c2O)cc1` . Value?
output: Active
